Biological target: RANTES/MIP-1α chemokine receptor (CCR1) in THP-1 cell membranes (Homo sapiens, UniProt P32246)
Construct: Membranes were prepared from THP-1 cells (ATCC #TIB202); host or cells: THP-1 cells (membrane preparation)
Sequence (P32246 whole entry): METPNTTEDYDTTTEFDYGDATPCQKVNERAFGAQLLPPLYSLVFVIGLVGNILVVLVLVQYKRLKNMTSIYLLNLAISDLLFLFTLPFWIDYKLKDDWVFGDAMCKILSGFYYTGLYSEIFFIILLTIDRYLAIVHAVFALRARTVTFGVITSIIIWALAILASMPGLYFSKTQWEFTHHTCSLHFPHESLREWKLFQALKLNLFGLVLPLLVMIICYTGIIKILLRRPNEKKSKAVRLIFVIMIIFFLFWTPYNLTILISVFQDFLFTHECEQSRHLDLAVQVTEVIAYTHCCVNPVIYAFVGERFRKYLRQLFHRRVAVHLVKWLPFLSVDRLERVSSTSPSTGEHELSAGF
Assay: Receptor binding assay: 125I-RANTES or 125I-MIP-1α binding to THP-1 cell membranes
Conditions: inhibitor concentration required for 50% inhibition of specific binding; 125I-RANTES or 125I-MIP-1α as ligand, THP-1 cell membranes; read-out: IC50
pIC50: −log10 of the molar value.
Please respond with reported pIC50 for every item in the list.

## Input // query pIC50 value for entry COc1ccc2c(c1)C(=CCCN1CCC(n3c(=O)[nH]c4ccccc43)CC1)c1cccnc1CO2
## Output > 6.00

## Input Which value of pIC50 has been reported for COC(=O)CC1CN(CCC=C2c3cc(C(C)(C)O)ccc3OCc3ncccc32)CCN1c1ccc(Cl)cc1 (centres unmarked) in the records?
## Output > 5.00

## Input Looking for the measured pIC50 of CN(C)C(=O)c1ccc2c(c1)C(=CCCN1CCC(O)(c3ccc(Cl)cc3)CC1)c1ccccc1CO2 , can you help?
## Output > 6.00

## Input Given the compound CC(=O)c1ccc2c(c1)C(=CCCN1CC[C@](O)(c3ccc(Cl)cc3)C(C)(C)C1)c1cccnc1CO2 , what is its reported pIC50?
## Output > 6.00

## Input Which measured pIC50 value corresponds to COc1ccc2c(c1)C(=CCN1CCC(O)(c3ccc(Cl)cc3)CC1)c1cccnc1CO2 ?
## Output > 5.00

## Input What does the record list as pIC50 for CCN(CCC=C1c2cc(C(C)(C)O)ccc2OCc2ncccc21)CCN(CC)c1ccc(Cl)cc1 ?
## Output > 5.00

## Input GET /values?readout=pIC50&item= CCCCN1C(=O)c2ccccc2C(=CCCN2CCC(O)(c3ccc(Cl)cc3)CC2)c2ccccc21
## Output > 6.00

## Input Fill blank: measured pIC50 of the compound Cc1cc(Cl)ccc1N1CCN(CCC=C2c3cc(C(C)(C)O)ccc3OCc3ncccc32)CC1 is ____.
## Output > 5.00

## Input Give its pIC50 value. Item: CC(=O)OCCOc1ccc2c(c1)C(=CCCN1CCC(O)(c3ccc(Cl)cc3)C(C)(C)C1)c1cccnc1CO2 (centres unmarked)
## Output > 6.00

## Input Requested field: pIC50. Item: CC(C)(O)c1ccc2c(c1)C(=CCCN1CCC(F)(c3ccc(Cl)cc3)C(O)C1)c1cccnc1CO2 (centres unmarked)
## Output > 6.00

## Input For the compound shown here, CC(C)(Oc1ccc2c(c1)C(=CCC[N+]1(C)CCC(O)(c3ccc(Cl)cc3)CC1)c1cccnc1CO2)C(N)=O (centres unmarked) , give the reported pIC50.
## Output > 6.00

## Input State the recorded pIC50 for this entry: CC(C)(O)c1ccc2c(c1)C(=CCCN1CCC(Oc3ccccc3Cl)CC1)c1cccnc1CO2
## Output > 6.00

## Input Data request, read-out pIC50, for COC1(c2ccc(Cl)cc2)CCN(CCC=C2c3cc(C(C)(C)O)ccc3OCc3ncccc32)CC1(C)O (centres unmarked)
## Output > 6.00

## Input What value of measured pIC50 is listed for CCC(=O)N(Cc1ccc(Cl)cc1)C1CCN(CCC=C2c3cc(C(C)(C)O)ccc3OCc3ncccc32)C1 (centres unmarked) ?
## Output > 5.00

## Input Which pIC50 value is on record for CC(C)(O)c1ccc2c(c1)C(=CCCN1CCC(NC(=O)Cc3ccc(Cl)cc3)CC1)c1cccnc1CO2 ?
## Output > 5.00

## Input Look up pIC50: CC(C)(C)OC(=O)CN1C(=O)c2ccccc2C(=CCCN2CCC(O)(c3ccc(Cl)cc3)CC2)c2ccccc21
## Output > 5.00

## Input pIC50 lookup needed for Oc1ccc2c(c1)C(=CCCN1CC=C(c3ccc(Cl)cc3)CC1)c1cccnc1CO2 , thanks.
## Output > 6.00

## Input Look up pIC50 for this compound: CCCCOC(=O)c1ccc2c(c1)C(=CCCN1CCC(O)(c3ccc(Cl)cc3)CC1)c1ccccc1CO2
## Output > 6.00

## Input Given the compound CC(C)(O)c1ccc2c(c1)C(=CCCN1CCC(N(CC(=O)O)Cc3ccc(Cl)cc3)C1)c1cccnc1CO2 (centres unmarked) , what is its reported pIC50?
## Output > 6.00

## Input Look at this compound and give its reported pIC50. CCN(CC)CCOC(=O)c1ccc2c(c1)C(=CCCN1CCC(O)(c3ccc(Cl)cc3)CC1)c1cccnc1CO2
## Output > 6.00

## Input I'd like to know its pIC50. The compound in question is CC(C)NC(=O)N(Cc1ccc(Cl)cc1)C1CCN(CCC=C2c3cc(C(C)(C)O)ccc3OCc3ncccc32)C1 (centres unmarked)
## Output > 6.00

## Input Which pIC50 is listed for COc1ccc2c(c1)C(=CCCN1CCC(O)(c3ccccc3)CC1)c1cccnc1CO2 ?
## Output > 6.00

## Input I would be grateful if you could share the reported pIC50 for CC(C)(O)COc1ccc2c(c1)C(=CCCN1CCC(O)(c3ccc(Cl)cc3)CC1)c1cccnc1CO2 .
## Output > 6.00

## Input What measured pIC50 goes with CC(C)(O)c1ccc2c(c1)C(=CCCN1CCC(N3C(=O)OCC3Cc3ccc(Cl)cc3)CC1)c1cccnc1CO2 (centres unmarked) ?
## Output > 5.00

## Input Dear colleague, I am looking for the recorded pIC50 of the following compound: COc1ccc2c(c1)C(=CCCN1CCC(O)(c3ccc(Cl)cc3)CC1)c1ccccc1CO2
## Output > 6.00

## Input Look up pIC50: CC(C)(O)c1ccc2c(c1)C(=CCCN1CCC(O)(c3ccc(Cl)cc3)C(C)(CO)C1)c1cccnc1CO2 (single isomer, unassigned) [Example 483-2]
## Output > 5.00

## Input Return reported pIC50; argument: CC(C)(O)c1ccc2c(c1)C(=CCCN1CCC(C(=O)NCc3ccc(Cl)cc3)C1)c1cccnc1CO2 (centres unmarked)
## Output > 4.70

## Input I am curious: what pIC50 value has been reported for COC1CN(CCC=C2c3cc(C(C)(C)O)ccc3OCc3ncccc32)CCC1(OC)c1ccc(Cl)cc1 (centres unmarked) ?
## Output > 6.00

## Input Fill in the blank: the reported pIC50 of COc1ccc2c(c1)C(=CCCN1CCN(S(=O)(=O)c3ccc(C)cc3)CC1)c1cccnc1CO2 is ____.
## Output < 5.00
